test_protocol: BSK_KF3CT_SRB: Viability Assessment in the BioMAP Diversity Plus: KF3CT Assay (AID 2283069);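 note: total protein by sulforhodamine B staining as a cytotoxicity measure; read 24 h after compound addition; fitted for both signal gain and loss against DMSO baseline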
cond: primary human keratinocytes with fibroblasts
Calls of active or inactive are those of the source. Rule for the calls: active = hit-call score of the fitted dose curve at least 0.9, where 1 is the maximum; inactive = score below 0.9.
measurement_label: AC50

>>> df
                                   compound  measurement_label       measurement
0  CCCCCCC(CCCCCCCCCCC(=O)OCC(COC(C)=O)OC(C)=O)OC(C)=O (stereo not drawn)               AC50          inactive
1  Cc1ccc(-c2cc(C(F)(F)F)nn2-c2ccc(S(N)(=O)=O)cc2)cc1               AC50          inactive
2                         COC(=O)CCCC(=O)OC               AC50          inactive
3  O=C(N[C@@H](c1ccccc1)[C@@H]1CCCCN1)c1cccc(C(F)(F)F)c1Cl               AC50  30.3 µM (active)
4  OCC(CO)n1cnc(-c2ccc(F)cc2)c1-c1ccnc(Oc2ccccc2)n1               AC50          inactive
5  COC(=O)[C@H]1[C@H]2C[C@@H]3c4[nH]c5cc(OC)ccc5c4CCN3C[C@H]2C[C@@H](OC(=O)c2cc(OC)c(OC)c(OC)c2)[C@@H]1OC               AC50          inactive
6          CN(C)CCCN1c2ccccc2Sc2ccc(Cl)cc21               AC50  31.6 µM (active)
7                                  OCC(O)CO               AC50          inactive
8                Cn1cnc2c1c(=O)[nH]c(=O)n2C               AC50          inactive
9                          C/C=C/C=C/C(=O)O               AC50          inactive

Tell me measured AC50 for `O=[Si]=O` please.
inactive

Identify measured AC50 corresponding to `O=C1OC(c2ccc(O)cc2)(c2ccc(O)cc2)c2ccccc21`
inactive

Please indicate AC50 recorded for CCC(C)N(C)C(=O)c1cc2ccccc2c(-c2ccccc2Cl)n1 (stereo not drawn)
inactive

---

System: DIO1 (gene 1733)
test_protocol: CCTE_GLTED_hDIO1: CCTE's human Deiodinase 1 (DIO1) Inhibition Assay, Great Lakes Toxicology and Ecology Division (GLTED) Lab (AID 2283987);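 note: isolated human DIO1 enzyme in a cell-free setup rather than cells; enzyme activity read as free iodide liberated from substrate via Sandell-Kolthoff colorimetry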
Inconclusive results are not listed. The source made the active and inactive calls. How the source made its calls: active means hit-call score of the fitted dose curve at least 0.9, where 1 is the maximum; inconclusive means response in the unintended direction; inactive means score below 0.9.
measurement_label: AC50

In [3]: df
Out[3]:
                         structure_notation  measurement_label       measurement
0                        S=c1[nH]c2ccccc2s1               AC50  23.4 µM (active)
1  Cc1cc(SC2=C(O)C[C@@](CCc3ccc(N)cc3)(C(C)C)OC2=O)c(C(C)(C)C)cc1CO               AC50  66.3 µM (active)
2  CCN(CC)CCOc1ccc(C(=C(Cl)c2ccccc2)c2ccccc2)cc1               AC50  70.7 µM (active)
3                 CCCCCCCCCCCCCCOS(=O)(=O)O               AC50  85.7 µM (active)

Shifting focus to the compound that follows.
Report AC50 on DIO1 (gene 1733) for this entry: `O=Cc1ccccc1C=O`
49.3 µM (active)
